Measured values drawn from patent US20250352659A1 for this set.

- method-description: Conjugator-antibody conjugate maleimide hydrolysis (ring opening) kinetics by reduced LCMS
- Assay type: physicochemical
- experimental-setup: buffer, pH 7
property-measured: half-life (h)
Write down the numeric answer in h and omit the unit.

compound	test-result
CN(C)C(=O)CCOCC(N)CN1C(=O)C=CC1=O (centres unmarked)	1.7

Continue with the next compound.
Returns the measured half-life for the input compound. Input: CN(C)C(=O)CCNC(=O)OCCC(CN)N1C(=O)C=CC1=O (centres unmarked)
1.7

* * *

Parameter: MS DAR. Scope: all listed entries.
- method-description: Conjugator-antibody conjugate stability in pH 7.4 and 8.0 buffer with and without GSH;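 also: conjugate hydrolysis tracked by LC-MS analysis of reduced samples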
- Format: physicochemical
- experimental-setup: incubation 20 h, pH 7.4, 37 °C
Write no unit; give the number alone.

Reference set, count: 5
molecule	property-measured	test-result
CN(C)C(=O)CCOCC(N)CN1C(=O)C=CC1=O (stereo not drawn)	MS DAR	8.00
CN(C)C(=O)CN(C)C(=O)OCC(CN)N1C(=O)C=CC1=O (stereo not drawn)	MS DAR	7.92
CN(C)C(=O)CCNC(=O)OCC(CCN)N1C(=O)C=CC1=O (stereo not drawn)	MS DAR	8.00
CN(C)C(=O)CCCCC(CN)N1C(=O)C=CC1=O (stereo not drawn)	MS DAR	8.00
NCC(COC(=O)NCCOCCOCCOCCOCCC(=O)O)N1C(=O)C=CC1=O (stereo not drawn)	MS DAR	8.00

# ---- query molecule ----
Which MS DAR is listed for CC(C)N(CCC(=O)N(C)C)C(=O)OCC(CN)N1C(=O)C=CC1=O (stereo not drawn) ?
8.00
